Tested on: NCI-H460
Assay: NCI tumour cell line growth inhibition, 48 h
Active and inactive are the calls of the source. No stated cut-off is given here; in the data, active = GI50 up to about 1.1 µM and inactive = higher.
Reply using exactly one outcome from active, inactive

Reference set, count: 5
{"compound": "COc1ccc(C=O)cc1O[Si](C)(C)C(C)(C)C", "assigned.class": "inactive"}
{"compound": "COc1ccc(N(C(=O)OC(C)(C)C)[C@@H]2C(C)=C[C@H]([S@@+]([O-])c3ccc(C)cc3)[C@@H]3C(=O)N(C)C(=O)[C@@H]32)cc1", "assigned.class": "inactive"}
{"compound": "COc1ccc(/C=C/C(=O)c2c(-c3ccccc3)nn(C)c(=O)c2N2CCCCC2)cc1", "assigned.class": "inactive"}
{"compound": "CN(C)c1ccc(C(=N/N=C2\\C(=O)Nc3ccccc32)c2ccc(N(C)C)cc2)cc1", "assigned.class": "active"}
{"compound": "CCC(C)C(NC(=O)C(CCCCN)NC(=O)C(NC(=O)C(CCC(N)=O)NC(=O)C(CCCNC(=N)N)NC(C)=O)C(C)CC)C(=O)NC(Cc1c[nH]c2ccccc12)C(=O)NC(Cc1ccccc1)C(=O)NC(CCC(N)=O)C(=O)NC(CC(N)=O)C(=O)NC(CCCNC(=N)N)C(=O)NC(CCCNC(=N)N)C(=O)NC(CCSC)C(=O)NC(CCCCN)C(=O)NC(Cc1c[nH]c2ccccc12)C(=O)NC(CCCCN)C(=O)NC(CCCCN)C(N)=O (stereo not given)", "assigned.class": "inactive"}

Problem: Which outcome did this test record for the compound O=C(NCCS(=O)(=O)N1C(=O)C2CCCN2C(=O)[C@@H]1Cc1ccccc1)OCc1ccccc1 (stereo not given in full) ?
Solution: inactive

Problem: // outcome(item) with item = CCC(C)OC(=O)/C(Br)=C1/OC(=O)c2ccccc2-c2ccccc21 (stereo not given)
Solution: inactive

Problem: Hi team, can someone confirm the assay call for CCc1cccc(CC)c1NC(=O)CC1SC(N)=NC1=O (stereo not given) ?
Solution: inactive

Problem: Could you check what this test reported for COC(=O)C(NC(=O)CNC(=O)CSc1nnc(COc2ccc(Cl)cc2)n1-c1ccccc1)C(C)C (stereo not given) ?
Solution: inactive

Problem: Assay outcome for O=C1c2ccccc2CC12Cc1cc3c(cc1C2=O)CCC3 (stereo not given) : what was it?
Solution: inactive
